biological target: Ras-related C3 botulinum toxin substrate 1 (Homo sapiens) (UniProt P63000); assay: activated mutant Rac1 GTP binding inhibitors, SAR follow-up, biochemical, oxadiazole analogs, multiplex bead flow cytometry (AID 2051); conditions: Bead-based flow cytometry, Bodipy-FL-GTP binding to GST-Rac1; measured here: Ki calculated from EC50
Kindly supply the reported pKi values for the records listed here.
Notebook: values listed as pKi are -log10 of the concentration (mol/L).

Enquiry: Recorded pKi for Cc1ccc(C)c(N2CCN(C(=O)CCc3nc(-c4cccc(C(F)(F)F)c4)no3)CC2)c1 , please?
Return: 6.51

Enquiry: Recorded pKi for COc1ccc(-c2noc(CCC(=O)N3CCN(c4cc(C)ccc4C)CC3)n2)cc1 , please?
Return: 6.27

Enquiry: Recorded pKi for COc1ccc(-c2noc(CCC(=O)N3CCN(c4ccc(OC)cc4)CC3)n2)cc1 , please?
Return: 7.22

Enquiry: Recorded pKi for COc1ccc(-c2cccc(CCC(=O)N3CCN(c4cc(C)ccc4C)CC3)c2)cc1 , please?
Return: 6.04

Enquiry: Recorded pKi for Cc1ccc(C)c(N2CCN(C(=O)CCc3nc(-c4ccccc4Br)no3)CC2)c1 , please?
Return: 6.70

====

target: Ras-related C3 botulinum toxin substrate 1 (Homo sapiens) (UniProt P63000); assay: activated mutant Rac1 GTP binding inhibitors, SAR follow-up, biochemical, oxadiazole analogs, multiplex bead flow cytometry (AID 2051); details: Bead-based flow cytometry, Bodipy-FL-GTP binding to GST-Rac1
Activity calls are given as the source filed them.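 How the source made its calls: active means EC50 of 30 microM or lower and a span of response of at least a set limit; inactive means the rest.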
One label from this list, please: 1 (yes) = active, 0 (no) = inactive

Enquiry: I would be grateful if you could indicate the recorded call for COc1ccc(-c2ccc(CCC(=O)N3CCN(c4cc(C)ccc4C)CC3)s2)cc1 .
Return: 0 (no)

Enquiry: I would be grateful if you could indicate the recorded call for COc1ccc(-c2noc(CCCC(=O)N3CCN(c4cc(C)ccc4C)CC3)n2)cc1 .
Return: 1 (yes)

Enquiry: I would be grateful if you could indicate the recorded call for Cc1ccc(C)c(N2CCN(C(=O)CCc3nc(-c4ccc(Br)cc4)no3)CC2)c1 .
Return: 1 (yes)

Enquiry: I would be grateful if you could indicate the recorded call for COc1cccc(-c2noc(CCC(=O)N3CCN(c4cc(C)ccc4C)CC3)n2)c1 .
Return: 1 (yes)

Enquiry: I would be grateful if you could indicate the recorded call for COc1ccc(-c2ccc(CCC(=O)N3CCN(c4cc(C)ccc4C)CC3)[nH]2)cc1 .
Return: 0 (no)

Enquiry: I would be grateful if you could indicate the recorded call for COc1ccc(-c2noc(CCC(=O)N3CCN(c4ccccc4Cl)CC3)n2)cc1 .
Return: 1 (yes)

Enquiry: I would be grateful if you could indicate the recorded call for Cc1ccc(C)c(N2CCN(C(=O)CCc3nc(-c4ccccc4C)no3)CC2)c1 .
Return: 1 (yes)

Enquiry: I would be grateful if you could indicate the recorded call for COc1ccc(-c2noc(CCC(=O)N3CCN(c4ccccc4F)CC3)n2)cc1 .
Return: 1 (yes)

Enquiry: I would be grateful if you could indicate the recorded call for COc1ccc(-c2noc(CCC(=O)N3CCN(c4ccccc4Br)CC3)n2)cc1 .
Return: 1 (yes)

Enquiry: I would be grateful if you could indicate the recorded call for COc1ccc(-c2noc(CCC(=O)N3CCN(c4cccc(F)c4)CC3)n2)cc1 .
Return: 0 (no)

Enquiry: I would be grateful if you could indicate the recorded call for COc1ccc(-c2noc(CCC(=O)N3CCN(c4cccc(OC)c4)CC3)n2)cc1 .
Return: 0 (no)

Enquiry: I would be grateful if you could indicate the recorded call for Cc1ccc(C)c(N2CCN(C(=O)CCc3nc(-c4ccccc4)no3)CC2)c1 .
Return: 1 (yes)

Enquiry: I would be grateful if you could indicate the recorded call for Cc1ccc(C)c(N2CCN(C(=O)CCc3nc(-c4ccc(N(C)C)cc4)no3)CC2)c1 .
Return: 1 (yes)

Enquiry: I would be grateful if you could indicate the recorded call for COc1ccc(-c2cccc(CCC(=O)N3CCN(c4cc(C)ccc4C)CC3)c2)cc1 .
Return: 0 (no)

Enquiry: I would be grateful if you could indicate the recorded call for Cc1ccc(C)c(N2CCN(C(=O)CCc3nc(-c4ccccc4Br)no3)CC2)c1 .
Return: 1 (yes)

Enquiry: I would be grateful if you could indicate the recorded call for COc1ccc(-c2noc(CCC(=O)N3CCN(c4cccc(C)c4)CC3)n2)cc1 .
Return: 0 (no)

Enquiry: I would be grateful if you could indicate the recorded call for COc1ccc(-c2cc(CCC(=O)N3CCN(c4cc(C)ccc4C)CC3)on2)cc1 .
Return: 0 (no)

Enquiry: I would be grateful if you could indicate the recorded call for Cc1ccc(C)c(N2CCN(C(=O)CCc3nc(-c4ccc(C(F)(F)F)cc4)no3)CC2)c1 .
Return: 1 (yes)

Enquiry: I would be grateful if you could indicate the recorded call for Cc1ccc(C)c(N2CCN(C(=O)CCc3nc(-c4cccc(Br)c4)no3)CC2)c1 .
Return: 1 (yes)

Enquiry: I would be grateful if you could indicate the recorded call for COc1ccc(-c2noc(CCC(=O)N3CCN(c4ccccc4C)CC3)n2)cc1 .
Return: 1 (yes)

====

target: Ras-related C3 botulinum toxin substrate 1 (Homo sapiens); experiment: activated mutant Rac1 GTP binding inhibitors, SAR follow-up, biochemical, oxadiazole analogs, multiplex bead flow cytometry (AID 2051); conditions: Bead-based flow cytometry, Bodipy-FL-GTP binding to GST-Rac1
Activity calls are given as the source filed them.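 Rule for the calls: active = EC50 of 30 microM or lower and a span of response of at least a set limit; inactive = the rest.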
One label from this list, please: active, inactive

Enquiry: I would be grateful if you could indicate the recorded call for COc1ccccc1-c1noc(CCC(=O)N2CCN(c3cc(C)ccc3C)CC2)n1 .
Return: inactive

Enquiry: I would be grateful if you could indicate the recorded call for COc1ccc(-c2coc(CCC(=O)N3CCN(c4cc(C)ccc4C)CC3)n2)cc1 .
Return: active

Enquiry: I would be grateful if you could indicate the recorded call for COc1ccc(-c2noc(CCC(=O)N3CCN(c4ccc(F)cc4)CC3)n2)cc1 .
Return: inactive

Enquiry: I would be grateful if you could indicate the recorded call for COc1ccc(-c2noc(CCC(=O)N3CCN(c4ccccc4OC)CC3)n2)cc1 .
Return: active

Enquiry: I would be grateful if you could indicate the recorded call for Cc1cccc(-c2noc(CCC(=O)N3CCN(c4cc(C)ccc4C)CC3)n2)c1 .
Return: active

====

target: Ras-related C3 botulinum toxin substrate 1 (Homo sapiens); assay: activated mutant Rac1 GTP binding inhibitors, SAR follow-up, biochemical, oxadiazole analogs, multiplex bead flow cytometry (AID 2051); conditions: Bead-based flow cytometry, Bodipy-FL-GTP binding to GST-Rac1
The source made the active and inactive calls.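 The calls were made as follows: active = EC50 of 30 microM or lower and a span of response of at least a set limit; inactive = the rest.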
One label from this list, please: Yes for active, No for inactive

Enquiry: I would be grateful if you could indicate the recorded call for COc1ccc(-c2noc(CCC(=O)N3CCN(c4ccccc4)CC3)n2)cc1 .
Return: No

Enquiry: I would be grateful if you could indicate the recorded call for COc1ccc(-c2noc(CC(=O)N3CCN(c4cc(C)ccc4C)CC3)n2)cc1 .
Return: No

Enquiry: I would be grateful if you could indicate the recorded call for COc1ccc(-c2cc(CCC(=O)N3CCN(c4cc(C)ccc4C)CC3)[nH]n2)cc1 .
Return: No

Enquiry: I would be grateful if you could indicate the recorded call for COc1ccc(-c2noc(CCC(=O)N3CCN(c4cccc(C)c4C)CC3)n2)cc1 .
Return: Yes

Enquiry: I would be grateful if you could indicate the recorded call for Cc1ccc(-c2noc(CCC(=O)N3CCN(c4cc(C)ccc4C)CC3)n2)cc1 .
Return: Yes

Enquiry: I would be grateful if you could indicate the recorded call for COc1ccc(-c2noc(CCC(=O)N3CCN(c4ccc(Br)cc4)CC3)n2)cc1 .
Return: No

====

molecular target: Ras-related C3 botulinum toxin substrate 1 (Homo sapiens); assay: activated mutant Rac1 GTP binding inhibitors, SAR follow-up, biochemical, oxadiazole analogs, multiplex bead flow cytometry (AID 2051); conditions: Bead-based flow cytometry, Bodipy-FL-GTP binding to GST-Rac1
The source made the active and inactive calls.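 The calls were made as follows: active = EC50 of 30 microM or lower and a span of response of at least a set limit; inactive = the rest.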
One label from this list, please: active, inactive

Enquiry: I would be grateful if you could indicate the recorded call for COc1ccc(-c2noc(CCC(=O)N3CCN(c4cccc(C(F)(F)F)c4)CC3)n2)cc1 .
Return: inactive

Enquiry: I would be grateful if you could indicate the recorded call for Cc1ccc(C)c(N2CCN(C(=O)CCc3nc(-c4ccc(Cl)cc4)no3)CC2)c1 .
Return: active

Enquiry: I would be grateful if you could indicate the recorded call for COc1ccc(-c2noc(CCC(=O)N3CCN(c4ccc(C(F)(F)F)cc4)CC3)n2)cc1 .
Return: inactive

Enquiry: I would be grateful if you could indicate the recorded call for Cc1ccc(C)c(N2CCN(C(=O)CCc3nc(-c4cccc(F)c4)no3)CC2)c1 .
Return: active

Enquiry: I would be grateful if you could indicate the recorded call for COc1ccc(-c2noc(CCCCC(=O)N3CCN(c4cc(C)ccc4C)CC3)n2)cc1 .
Return: inactive

Enquiry: I would be grateful if you could indicate the recorded call for Cc1ccc(C)c(N2CCN(C(=O)CCc3nc(-c4ccccc4Cl)no3)CC2)c1 .
Return: active

Enquiry: I would be grateful if you could indicate the recorded call for COc1ccc(-c2noc(CCC(=O)N3CCN(c4ccc(C)cc4)CC3)n2)cc1 .
Return: inactive

Enquiry: I would be grateful if you could indicate the recorded call for Cc1ccc(C)c(N2CCN(C(=O)CCc3nc(-c4cccc(C(F)(F)F)c4)no3)CC2)c1 .
Return: active

Enquiry: I would be grateful if you could indicate the recorded call for Cc1ccc(C)c(N2CCN(C(=O)CCc3nc(-c4ccccc4C(F)(F)F)no3)CC2)c1 .
Return: active

Enquiry: I would be grateful if you could indicate the recorded call for COc1ccc(-c2noc(CCC(=O)N3CCN(c4ccc(OC)cc4)CC3)n2)cc1 .
Return: inactive

Enquiry: I would be grateful if you could indicate the recorded call for COc1ccc(-c2noc(CCC(=O)N3CCN(c4cccc(Br)c4)CC3)n2)cc1 .
Return: active

Enquiry: I would be grateful if you could indicate the recorded call for Cc1ccc(C)c(N2CCN(C(=O)CCc3nc(-c4cccc(Cl)c4)no3)CC2)c1 .
Return: active

Enquiry: I would be grateful if you could indicate the recorded call for COc1ccc(-c2noc(CCC(=O)N3CCN(c4ccc(Cl)cc4)CC3)n2)cc1 .
Return: inactive
